- TEST_TARGET: turkey β3C-adrenoceptor (tβ3C) (Meleagris gallopavo)
- MEASUREMENT_PROTOCOL: cell-based
MEASURE_NAME: pEC50
Keep in mind that pEC50 stands for -log10 of concentration in molar terms.

Query: Endpoint output: pEC50 of CC(C)(C)NC[C@H](O)COc1cccc2[nH]c(C#N)cc12 [S-Cyanopindolol] . Value?
Response: 10.60

---

- TEST_TARGET: turkey β3C-adrenoceptor (tβ3C) (Meleagris gallopavo, UniProt A0A803YLI8)
- Sequence (A0A803YLI8 entry or part of it): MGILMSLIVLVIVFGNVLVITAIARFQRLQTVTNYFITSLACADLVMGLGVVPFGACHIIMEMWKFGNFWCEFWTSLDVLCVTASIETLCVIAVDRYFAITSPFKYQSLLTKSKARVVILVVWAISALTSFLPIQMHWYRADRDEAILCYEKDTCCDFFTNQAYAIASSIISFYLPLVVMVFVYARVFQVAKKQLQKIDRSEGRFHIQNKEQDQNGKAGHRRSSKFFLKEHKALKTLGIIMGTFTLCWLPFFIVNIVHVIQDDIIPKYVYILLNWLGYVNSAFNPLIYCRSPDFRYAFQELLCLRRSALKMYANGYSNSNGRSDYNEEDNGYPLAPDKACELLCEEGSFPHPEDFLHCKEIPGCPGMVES
- MEASUREMENT_PROTOCOL: CRE-SPAP production, CHO tβ3C cells
- Type: cell-based
- EXPERIMENTAL_SETUP: Log KD CGP20712A, vs agonist CGP12177, CRE-SPAP, CHO tβ3C cells
MEASURE_NAME: Kd
Kindly format the answer as number then unit.

Query: Endpoint output: Kd of Cn1cc(C(F)(F)F)nc1-c1ccc(OCC(O)CNCCOc2ccc(O)c(C(N)=O)c2)cc1 (stereo not shown) [CGP20712A] . Value?
Response: 2690 nM

---

- TEST_TARGET: turkey β3C-adrenoceptor (tβ3C) (Meleagris gallopavo, UniProt A0A803YLI8)
- MEASUREMENT_PROTOCOL: 3H-CGP12177 whole cell binding, CHO tβ3C cells
- EXPERIMENTAL_SETUP: competition with 3H-CGP12177, whole cells, CHO tβ3C; given as log KD; mean ± s.e.m.; read-out: Log KD (converted)
MEASURE_NAME: Kd (nM)
Quick reminder: number only, in nM, skip the unit.

// below: answered molecules
- MOLECULE: "CC(C)NCC(O)COc1ccc(COCCOC(C)C)cc1 (stereo not shown) [Bisoprolol]"
  TEST_TARGET: "turkey β3C-adrenoceptor (tβ3C) (Meleagris gallopavo, UniProt A0A803YLI8)"
  Kd, nM: 2630
- MOLECULE: "CC(C)NCC(O)c1cc(O)cc(O)c1 (stereo not shown) [Metaproterenol]"
  TEST_TARGET: "turkey β3C-adrenoceptor (tβ3C) (Meleagris gallopavo, UniProt A0A803YLI8)"
  Kd, nM: 4170
- MOLECULE: "CC(C)NCC(O)COc1cccc2[nH]c3ccccc3c12 (stereo not shown) [Carazolol]"
  TEST_TARGET: "turkey β3C-adrenoceptor (tβ3C) (Meleagris gallopavo, UniProt A0A803YLI8)"
  Kd, nM: 0.012
- MOLECULE: "CC(CCc1ccc(O)cc1)NCCc1ccc(O)c(O)c1 (stereo not shown) [Dobutamine]"
  TEST_TARGET: "turkey β3C-adrenoceptor (tβ3C) (Meleagris gallopavo, UniProt A0A803YLI8)"
  Kd, nM: 2690
- MOLECULE: "CC(C)NCC(O)c1ccc(NS(C)(=O)=O)cc1 (stereo not shown) [Sotalol]"
  TEST_TARGET: "turkey β3C-adrenoceptor (tβ3C) (Meleagris gallopavo, UniProt A0A803YLI8)"
  Kd, nM: 537
- MOLECULE: "CC(C)(C)NCC(O)COc1cccc2c1CC(O)C(O)C2 (stereo not shown) [Nadolol]"
  TEST_TARGET: "turkey β3C-adrenoceptor (tβ3C) (Meleagris gallopavo, UniProt A0A803YLI8)"
  Kd, nM: 11.2
- MOLECULE: "Cc1ccc(Cl)c(OCC(O)CNC(C)(C)C)c1 (stereo not shown) [Bupranolol]"
  TEST_TARGET: "turkey β3C-adrenoceptor (tβ3C) (Meleagris gallopavo, UniProt A0A803YLI8)"
  Kd, nM: 0.851
- MOLECULE: "COc1ccc(CCNC[C@H](O)c2ccc(O)cc2)cc1OC [Denopamine]"
  TEST_TARGET: "turkey β3C-adrenoceptor (tβ3C) (Meleagris gallopavo, UniProt A0A803YLI8)"
  Kd, nM: 2340
- MOLECULE: "CC(C)NCC(O)c1ccc2ccccc2c1 (stereo not shown) [Pronethalol]"
  TEST_TARGET: "turkey β3C-adrenoceptor (tβ3C) (Meleagris gallopavo, UniProt A0A803YLI8)"
  Kd, nM: 102
- MOLECULE: "OC(CNCC(O)C1CCc2cc(F)ccc2O1)C1CCc2cc(F)ccc2O1 (stereo not shown) [Nebivolol]"
  TEST_TARGET: "turkey β3C-adrenoceptor (tβ3C) (Meleagris gallopavo, UniProt A0A803YLI8)"
  Kd, nM: 16.6

Query: Endpoint output: Kd of CCCC(=O)Nc1ccc(OCC(O)CNC(C)C)c(C(C)=O)c1 (stereo not shown) [Acebutolol] . Value?
Response: 4070

Query: Endpoint output: Kd of CC(C)NCC(O)COc1ccc(CC(N)=O)cc1 (stereo not shown) [Atenolol] . Value?
Response: 17800
